Measured GI50 accompanies every entry in the list below.
tested on: DLD-1; experiment: NCI tumour cell line growth inhibition, 48 h
Active and inactive are the calls of the source. Rule as the data show it: active = GI50 up to about 1.1 µM and inactive = higher.

Here are 5 molecules together with their reported answers.
MOLECULE	GI50
O=C(O)CCSC(=S)Nc1cccc(F)c1	50.7 µM (inactive)
COC(=O)CC(=O)NCC1=CCC(=O)CC1	> 100 µM (inactive)
COc1ccc(C2NCCc3c2[nH]c2ccccc32)cc1 (configuration not stated)	> 100 µM (inactive)
CCC1(Cl)C(=O)NC(=O)N(C2CC(O)C(CO)O2)C1N=[N+]=[N-] (configuration not stated)	> 100 µM (inactive)
CC(C(=O)c1ccc(Cl)cc1)/C(=N/NC(=O)NN)C(=O)Nc1cccc(C(F)(F)F)c1 (configuration not stated)	> 100 µM (inactive)

Which measured GI50 value corresponds to NC(=S)N/N=C(/CC(=O)c1ccc([N+](=O)[O-])cc1)C(=O)Nc1ncc([N+](=O)[O-])s1 ? > 100 µM (inactive)

Which measured GI50 value corresponds to COc1cc2c3c(c1OC)-c1c(ccc4c1OCO4)CC3(C#N)N(C(=O)c1ccccc1)CC2 (configuration not stated) ? 52.2 µM (inactive)

---

system: SK-MEL-2; experiment: NCI tumour cell line growth inhibition, 48 h
The source made the active and inactive calls. Cut-off read from the data, not from the text of the source: active = GI50 up to about 1.1 µM and inactive = higher.
Choose one outcome from this list and give only that: true (1) for active, false (0) for inactive

Hello, I am checking results. What call was entered for N#Cc1ccc(-c2nc3c(N)ncnc3o2)cc1 ? false (0)

Hello, I am checking results. What call was entered for COc1c(OC)c(O)c2c(=O)c(OC)c(-c3ccc4c(c3)OCO4)oc2c1O ? false (0)

Hello, I am checking results. What call was entered for COC1C(O)CC(OC2CC(Oc3cc4cc5c(c(O)c4c(O)c3C)C(=O)[C@@H](OC3CC(OC4CC(OC6CC(C)(O)C(OC(C)=O)C(C)O6)C(O)C(C)O4)C(O)C(C)O3)[C@H]([C@H](OC)C(=O)[C@@H](O)[C@@H](C)O)C5)OC(C)C2OC(C)=O)OC1C (some centres not stated) [CHROMOMYCIN] ? true (1)

Hello, I am checking results. What call was entered for Cc1cccc(N2C(=O)C3ON(C(C(N)=O)c4ccccc4)C(c4c5ccccc5c(Cl)c5ccccc45)C3C2=O)c1C (configuration not stated) ? false (0)

Hello, I am checking results. What call was entered for CCOC(=O)C(NC(=O)OCc1ccccc1)C(=O)O (configuration not stated) ? false (0)

Hello, I am checking results. What call was entered for O=C1N2Cc3c4ccc5c3CN3C(=O)N6Cc7c(ccc(c7CN1C6(c1ccccc1)C23c1ccccc1)OCCOCCOc1cc(Br)c(Br)cc1OCCOCCO4)OCCOCCOc1cc(Br)c(Br)cc1OCCOCCO5 (configuration not stated) ? false (0)

Hello, I am checking results. What call was entered for COc1ccc(C2C(C#N)=C(S)N(C3OC(COC(C)=O)C(OC(C)=O)C(OC(C)=O)C3OC(C)=O)C(c3ccccc3)=C2C(C)=O)cc1 (configuration not stated) ? false (0)

---

test system: Hs-578T; test: NCI tumour cell line growth inhibition, 48 h
The source made the active and inactive calls. No stated cut-off is given here; in the data, active = GI50 up to about 1.1 µM and inactive = higher.
Choose one outcome from this list and give only that: active, inactive

Worked cases, answers included:
COMPOUND	ANSWER_LABEL
CO[C@H]1[C@@H](O)[C@@H](C)O[C@@H](O[C@H]2CC[C@@]3(C)[C@H](CC[C@@H]4[C@@H]3CC[C@]3(C)[C@@H](C5=CC(=O)OC5)[C@@H](OC(C)=O)C[C@]43O)C2)[C@@H]1O [NERITALOSIDE]	active
O=C(O)c1nn(-c2ccccc2-c2nnc(O)nc2O)c(=O)[nH]c1=O	inactive
CC(C)NC(=O)OCc1c(COC(=O)NC(C)C)c(-c2cc[n+](COC(=O)C3CCCCC3)cc2)n2c1CCC2	inactive

Now look at this one.
Hello, I am checking results. What call was entered for CC(C)C1CC[C@H](C)C[C@@H]1OC(=O)C(C(=O)O[C@H]1C[C@@H](C)CCC1C(C)C)C(O)[C@@H]1OC(C)(C)O[C@H]1C1COC(C)(C)O1 (some centres undefined) ? inactive
